Overview of recorded melting point for various molecules

> print(dat)
                                   molecule         result
1           Oc1ccc(-c2cc3cc(F)cc(F)c3o2)cc1  152 to 154 °C
2     CC(C)(C)c1ccc(C(=O)CCCN2CCC(O)CC2)cc1    63 to 65 °C
3  CCn1cc(C(=O)O)c(=O)c2cc(F)c(N3CCN(Cc4ccc([N+](=O)[O-])cc4)CC3)c(F)c21  241 to 242 °C

Prompt line: Which melting point value is on record for c1ccc(OCCN2CCC(CNc3nc4ccccc4s3)CC2)cc1 ?
Response line: 116 °C

Prompt line: Dear colleague, I am looking for the recorded melting point of the following molecule: COc1ccc(CS[C@H]2C[C@@H](C(=O)O)N(C(=O)OCc3ccc([N+](=O)[O-])cc3)C2)cc1
Response line: 96 to 98 °C

Prompt line: For COCc1cccc(CC=NO)c1[N+](=O)[O-] , what is its reported melting point?
Response line: 92 to 95 °C

Prompt line: Bench note: what melting point did N#Cc1ccc(C(=O)N2CCN(NC(=O)c3ccc(F)cc3)CC2)cc1 show?
Response line: 222 to 224 °C

Prompt line: Item under review: COC(=O)c1ccc(Cl)c(Cl)c1NS(C)(=O)=O . Reported melting point?
Response line: 100 to 102 °C

Prompt line: // melting point lookup, key: Oc1ccc(-c2c3ccccc3c(Br)c3sc4ccccc4c23)cc1O
Response line: 181 to 182 °C

Prompt line: Look at this molecule and give its reported melting point. O=C(Nc1ccc2nc(CN3CCOCC3)ccc2c1)c1ccc(-c2ccc(Cl)cc2)cc1
Response line: 236 to 238 °C

Prompt line: Entry CCCC/C(=C\C=C\C(=O)Oc1ccc([N+](=O)[O-])cc1)c1cccc(OC)c1 : reported melting point = ?
Response line: 81.5 to 83 °C

Prompt line: Record request: melting point value, item O=S(=O)(c1ccccc1)c1ncc(Cl)cn1
Response line: 103 °C

Prompt line: Which melting point value belongs to COc1cc2cc3c(Nc4ccc(Sc5nccn5C)c(Cl)c4)c(C#N)cnc3cc2cc1OCCCCl ?
Response line: > 300 °C

Prompt line: Give the measured melting point of CCC(=O)c1ccc(-c2ncccc2S(=O)(=O)Nc2ncc(C)nc2OC)cc1 .
Response line: 126 to 127 °C

Prompt line: Sample CCN(CC)C(=O)Nc1ccc(S(=O)(=O)N2C(=O)C(NCCCC(N)=O)(c3ccccc3Cl)c3cc(Cl)ccc32)cc1 (centres undefined) — what was its melting point?
Response line: 192 °C

Prompt line: Record request: melting point value, item CCc1cnccc1C[C@@H](O)C(Cl)(Cl)Cl
Response line: 132 to 134 °C

Prompt line: Which melting point is listed for COc1ccc2c(c1)c(-c1cc3cccnc3[nH]1)cn2C ?
Response line: 226 to 227 °C

Prompt line: Look at this molecule and give its reported melting point. C#CC1C2=C(C(=O)CCC2)c2ccc(OC(=O)C(C)(C)C)cc2N1C(=O)Oc1ccccc1 (centres undefined)
Response line: 140 to 142 °C

Prompt line: What measured melting point goes with COc1cc(NC(=O)c2ccc(-c3ccncc3)cc2)cc(N2CCN(C)CC2)c1OC ?
Response line: 219 to 221 °C

====

Reported values of melting point for individual entries

> print(dat)
                                   molecule  observation.type         result
1  CC12CCC(=O)C=C1CCC1C2CCC2(C)C(=CCC(=O)O)CCC12 (stereo not given)     melting point  266 to 270 °C
2     c1ccc(COc2ccc(Nc3ncnc4ncccc34)cc2)cc1     melting point  235 to 237 °C
3  O=C(O)c1cc(-c2ccc([N+](=O)[O-])cc2)c(-c2ccc(F)cc2)s1     melting point  227 to 229 °C
4  CC(C)n1nc(C(Br)C(=O)c2ccccc2)ccc1=O (stereo not given)     melting point   98 to 100 °C

Prompt line: I have this molecule here, Cc1ccc(CC2(O)CCN(CC3Cc4cc(O)ccc4N3)CC2)cc1 (racemic) , and I need its recorded melting point.
Response line: 90 to 94 °C

====

melting point reference

Take a look at these entries with their results.
> print(dat)
                                   compound         result
1        O=C1CCOc2ccc(OCc3ccc4ccccc4n3)cc21  112 to 114 °C
2  CC(=O)Oc1ccccc1C(=O)Nc1nc(S(C)=O)cs1 (stereo not given)  167 to 169 °C
3  COc1ccc(C(=O)Nc2ccccc2C(c2ccc(O)cc2)c2ccc(O)cc2)cc1  154 to 156 °C
4  Fc1ccc(C2=CC(=C(C(F)(F)F)C(F)(F)F)N=C2c2ccc(F)cc2)cc1  145 to 146 °C
5  COc1ccc2cc(-c3cc(=O)oc4cc(O)ccc34)ccc2c1  223 to 225 °C
6       O=c1[nH]c2ccc(Br)cc2cc1[N+](=O)[O-]         276 °C
7  CC(=O)SCC(Cc1ccccc1)C(=O)Nc1cccc(C(=O)N[C@@H](Cc2ccccc2)C(=O)OCc2ccccc2)c1 (stereo not given in full)    89 to 91 °C
8  CCOC(c1ccc(C=NO)cc1)(c1ccc2[nH]c(=O)cc(-c3cccc(Cl)c3)c2c1)c1cncn1C (stereo not given)         232 °C

Prompt line: Entry CCCCCCCCCCOc1cnc(-c2ccc(CCCCCC(C)OC(C)=O)cc2)nc1 (stereo not given) : reported melting point = ?
Response line: 72 to 73 °C

Prompt line: Value lookup for melting point; key = O=c1[nH]c2cc(Br)cc(Br)c2c(=O)n1Cc1ccccc1
Response line: > 280 °C

Prompt line: What does the data say about its melting point? Entry: CCN(CC)C(=O)c1c(C=O)cccc1[Si](C)(C)C
Response line: 63.5 to 65.5 °C

Prompt line: Which melting point reading was recorded for the compound O=C1C=CC(O)(c2nc3ccccc3s2)C(Sc2ccccc2)C1 (stereo not given) ?
Response line: 66 °C

Prompt line: Item COc1cc(Nc2nccc(-c3ccc(OCc4ccccc4)cc3)n2)cc(OC)c1OC has what recorded melting point?
Response line: 171 to 172 °C

====

Listed molecules paired with reported melting point

Previously resolved entries follow.
> print(dat)
                                   molecule  observation.type         result
1  OCC(O)CSC(=S)Nc1ccccn1 (stereo not given)     melting point          98 °C
2  C#CCn1c(=O)sc2cc(F)c(-c3ccc(C(F)(F)F)n(C)c3=O)cc21     melting point  150 to 151 °C
3  CN1CCN(Cc2cc(C(=O)c3ccc(Cl)cc3)cc(C(C)(C)C)c2O)CC1     melting point  131 to 132 °C
4  COc1ccc(-c2cc(CN3CCN(C)CC3)c(=O)n(Cc3ccc(Cl)cc3)n2)cc1F     melting point  129 to 130 °C
5  COCc1nc2c(N)nc3cc(CCC(=O)N4CCS(=O)(=O)CC4)ccc3c2n1CC(C)(C)O     melting point  190 to 192 °C
6  Cc1c(F)cccc1N1CC(C(=O)O)CC1=O (stereo not given)     melting point  155 to 160 °C
7              CC(=CN(C)C)C(=O)c1cccc(Cl)c1     melting point  206 to 208 °C
8  CSCc1sccc1S(=O)(=O)N(C)c1cccc2cc(-c3nccs3)[nH]c12     melting point         213 °C
9  Cc1cc(Cl)ncc1C(=O)Nc1ccc2c(c1)-c1c(c(C(N)=O)nn1-c1ccc(F)cc1)CC2     melting point  280 to 284 °C

Now for a further molecule.
Prompt line: Which measured melting point value corresponds to Cc1nnc2ccc(-c3cccc(CC(=O)NC(C)C)c3)nn12 ?
Response line: 197 to 200 °C

====

observation.type: melting point

> print(dat)
                                   compound         result
1  CS(=O)(=O)c1ccc(C(=O)C2C(=O)CCC(S(C)(=O)=O)C2=O)c(Cl)c1 (stereo unspecified)  175 to 180 °C

Prompt line: Give the measured melting point of COc1ccc(-c2nc3cc(C(C(C)C)n4ccnc4)ccc3[nH]c2=O)cc1OC (stereo unspecified) .
Response line: 243 °C

Prompt line: State the recorded melting point for this entry: CC(=O)Nc1ccccc1Nc1ccc(C(=O)c2ccccc2)cc1
Response line: 155 to 157 °C

====

observation.type: melting point

> print(dat)
                                   molecule         result
1               Cc1cnc2nc(S(=O)(=O)Cl)nn2c1  106 to 108 °C
2  CCCCCCCCCCCCCCCCCCOc1ccc(OCc2ccccc2)c(C(=O)N(CC(=O)O)CC(=O)O)c1    81 to 83 °C
3  Cc1cc(-c2ccc(OCc3ccncc3)cc2)cc2ccc(=O)[nH]c12  270 to 274 °C
4           COc1ccc(Nc2ccc(Cl)cc2C(=O)O)cc1  188 to 189 °C
5  CCc1cc(NC(=O)N2CCN(c3cc(C)cc(C)c3)CC2)c(N2CCNCC2)nc1C  100 to 102 °C

Prompt line: Item CC(=O)N1c2ccc(-c3ccc(C(=O)O)cc3)cc2[C@H](Nc2ccc(Cl)cc2)C[C@@H]1C has what recorded melting point?
Response line: 275 °C

Prompt line: Which melting point is listed for Cn1c(C(F)(F)F)nn(Cc2c(Cl)ccc(C(=O)O)c2Cl)c1=O ?
Response line: 207 °C

Prompt line: Looking for the measured melting point of CCC1(CC)OC(=S)Nc2ccc(-c3cccc(Cl)c3)cc21 , can you help?
Response line: 148 to 150 °C

Prompt line: Fill blank: measured melting point of the molecule O=C(OCC1(c2ccccc2)CC1)c1cccc2nnsc12 is ____.
Response line: 55 to 57 °C

Prompt line: Any idea what its melting point is? The molecule is CCOC(=O)C(Oc1ccc(Oc2ccc(C#N)cc2)cc1)C(=O)OCC
Response line: 42 to 46 °C

Prompt line: For the molecule CC(F)(F)c1cccc(Oc2ccc(C3CCCN4CCS(=O)(=O)N=C34)cc2)c1 (stereo not given) , what melting point is on record?
Response line: 117 to 118 °C

Prompt line: State the recorded melting point for this entry: O=C(Nc1cncc(Cl)n1)C1=C(O)c2ccccc2S(=O)(=O)N1
Response line: 234 to 235 °C

Prompt line: Item CC(C)N(C(=O)CO)c1ccccc1 has what recorded melting point?
Response line: 39 °C

Prompt line: Fill in: melting point of Cc1ccc2[nH]c(S(=O)(=O)CC(F)(F)F)nc2c1 is ___
Response line: 160 to 161 °C

Prompt line: So what does the record say about melting point for CC(=O)c1cc(-c2cccc(F)c2)c(=O)n2c1-c1sccc1CC2 ?
Response line: 109 to 110 °C

Prompt line: Which melting point is reported for this molecule? CCN1C(=O)CCCc2c1ccc(Nc1ncc(Cl)c(Nc3ccc(N4CCN(C)CC4)cc3OC)n1)c2OC
Response line: 186 to 187 °C

Prompt line: Consider the molecule NC(=O)c1cc(Br)c(O)c(Br)n1 and give its measured melting point.
Response line: 261 to 266 °C

Prompt line: Requested read-out: melting point. Entry: CCOC(=O)c1c(Cn2ccnc2CC)nc2cc(OC)c(OC)cc2c1-c1ccc(OC)c(OC)c1
Response line: 163 to 164 °C

Prompt line: Query: melting point; subject: CCn1cc(C2(c3cccc(-c4cccnc4F)c3)N=C(N)N(C)C2=O)cc1C=O (stereo not given)
Response line: 152 to 156 °C

Prompt line: Look up melting point: CCOC(=O)C1(CCCN)CCCCC1(O)c1ccccc1 (stereo not given)
Response line: 130 to 133 °C
